Test system: cultured human mast cells (CHMC)
Test description: CHMC low cell density ionomycin activation: tryptase assay
Type: cell-based
Measurement setup: Homo sapiens, Mast cell, low cell density CHMC, tryptase readout, 3 pt, read-out: LD Tryptase, CHMC, Iono, 3 pt
Each entry below carries its reported IC50.

These solved cases illustrate the format of a correct answer.
>>> df
                           structure_string  property  measured_result
0  CC(C)(C)c1cc(Nc2nc(Nc3cccc(N4CCOCC4)c3)ncc2F)n[nH]1      IC50          > 10 µM
1  CC1(C)Oc2ccc(Nc3nc(Nc4ccc5cn[nH]c5c4)ncc3F)cc2NC1=O      IC50          > 10 µM
2  CN(c1ccc2c(c1)NC(=O)C(C)(C)O2)c1nc(Nc2cccc(-c3ncco3)c2)ncc1F      IC50          > 10 µM

Request: For the molecule shown here, COC(=O)N1CCN(c2ccc(Nc3ncc(F)c(Nc4cccc(NC5=NCCN5)c4)n3)cc2)CC1 , give the reported IC50.
Result: > 10 µM

Request: For the molecule shown here, CC(=O)N1CCN(c2ccc(Nc3ncc(F)c(Nc4cc(C(C)(C)C)[nH]n4)n3)cc2)CC1 , give the reported IC50.
Result: > 10 µM

Request: For the molecule shown here, CC(=O)N1CCN(c2ccc(Nc3ncc(F)c(Nc4cccc(NC5=NCCN5)c4)n3)cc2)CC1 , give the reported IC50.
Result: > 10 µM

Request: For the molecule shown here, Cc1cc(Nc2ncc(F)c(Nc3ccc4c(c3)NC(=O)C(C)(C)O4)n2)cc(Cl)c1OC1CCCC1 , give the reported IC50.
Result: > 10 µM

Request: For the molecule shown here, CC(=O)N1CCN(c2cccc(Nc3ncc(F)c(NC4CCC4)n3)c2)CC1 , give the reported IC50.
Result: > 10 µM

Request: For the molecule shown here, CN1CCN(c2ccc(Nc3ncc(F)c(NC4CCC4)n3)cc2)CC1 , give the reported IC50.
Result: > 10 µM

Request: For the molecule shown here, CN(c1ccc2c(c1)NC(=O)C(C)(C)O2)c1nc(Nc2ccc(-c3ncco3)cc2)ncc1F , give the reported IC50.
Result: < 10 µM

###

Tested on: cultured human mast cells (CHMC)
Test description: CHMC low cell density ionomycin activation: tryptase assay
Format: cell-based
Measurement setup: Homo sapiens, Mast cell, low cell density CHMC, tryptase readout, 3 pt, read-out: LD Tryptase, CHMC, Iono, 3 pt
pIC50: −log10 of the molar value.
Property: pIC50

These solved cases illustrate the format of a correct answer.
>>> df
                                   compound                     target_entity  measured_result
0  CCOC(=O)N1CCN(c2cccc(Nc3ncc(F)c(Nc4cc(C(C)(C)C)[nH]n4)n3)c2)CC1 [Compound 1101]  cultured human mast cells (CHMC)           < 5.00
1  Fc1cnc(Nc2cccc(N3CCOCC3)c2)nc1NC1CCC1 [Compound 1108]  cultured human mast cells (CHMC)           < 5.00

Request: For the compound shown here, COc1c(C)cc(Nc2ncc(F)c(Nc3ccc4c(c3)N(C)C(=O)C(C)(C)O4)n2)cc1C [Compound 1033] , give the reported pIC50.
Result: > 5.00

Request: For the compound shown here, CN1C(=O)C(C)(C)Oc2ccc(N(C)c3nc(Nc4ccc(-c5ncco5)cc4)ncc3F)cc21 [Compound 1024] , give the reported pIC50.
Result: > 5.00

Request: For the compound shown here, Cc1cc(Nc2ncc(F)c(Nc3ccc4c(c3)NC(=O)C(C)(C)O4)n2)cc(Cl)c1OC(C)C [Compound 1039] , give the reported pIC50.
Result: > 5.00
